# Test system: Fibrinogen (Alexa647-labelled)
# Test name: fibrinogen binders on compound microarrays, profiling panel, artefact control for SMM control-protein annotation, biochemical, small-molecule microarray, 635/667 nm fluorescence (AID 1131);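 note: z-score merges 667 nm fluorescence with per-spot signal-to-noise over triplicate slides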
# Settings: fibrinogen-A647 binding fluorescence, higher = more signal
Attribute: composite z-score
Lab note: write the figure by itself, no unit.

C=CC[C@@H]1C=CC(ON=C(C)C)[C@@H](CO)O1 (stereo partly specified)
-0.445

For the molecule `CC(=O)OC[C@H]1O[C@@H](ON=C(C)CCN2CCCCc3nc(C)c(C)cc32)[C@H](OC(C)=O)[C@@H](OC(C)=O)[C@@H]1OC(C)=O` , report composite z-score.
0.736

For the molecule `CCN1C(=O)[C@H]2[C@H]3[C@H](O)[C@H](O)CC(=NO[C@@H](C)c4cc(-c5c(C)cc(C)cc5C)no4)[C@@H]3CC[C@H]2C1=O` , report composite z-score.
0.813

For the molecule `CON=C(C)CCN1CCCCc2nc(C)c(C)cc21` , report composite z-score.
0.582

For the molecule `CC(C)=CCCC(C)=CCON=C1C[C@@H](O)[C@@H](O)[C@@H]2[C@@H]3C(=O)N(c4cccc(Oc5ccccc5)c4)C(=O)[C@@H]3CC[C@H]12` , report composite z-score.
0.693

For the molecule CC(C)=NOC(C)CN1CCCc2nc(C)c(C)cc21 (stereo unspecified) , report composite z-score.
0.484

###

# Test system: Human papillomavirus type 1a protein E7 (residues 44-93)
# Test name: HPV1a E7 fragment binders on microarrays, primary screen, biochemical, small-molecule microarray, residues 44-93, 635 nm fluorescence (AID 1108);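 note: E7 fragment applied at 1 µg/mL in TBST for 1 h at 4 C; score combines spot fluorescence with its signal to noise ratio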
# Settings: small-molecule microarray binding, fluorescence 635 nm; higher = more signal
Assay endpoint: composite z-score
Lab note: write the figure by itself, no unit.

Some solved cases for reference:
COCCNC(=O)OCC1CCCC2(CC(OC(=O)NCc3cccc4ccccc34)CC(CCC(=O)N[C@@H](C)C(=O)OC)O2)O1 (some centres undefined)
1.35
C=CC[C@@H]1C=C[C@H](ON=CC[C@@H]2C=C[C@H](OC(C)=O)[C@@H](COC(C)=O)O2)[C@@H](CO)O1
1.25
CC(=O)OC[C@H]1O[C@H](CC=NOC(C)CN2CCCc3nc(C)c(C)cc32)C=C[C@@H]1OC(C)=O (some centres undefined)
0.838
COC(=O)C1=C(C)N(Cc2ccccc2)C2=C3C(=O)OCC[C@@H]3[C@@](O)(C(=O)OC)C(=O)N2[C@@H]1c1ccccc1
-0.0816
CC(C)(C)N1C(=O)[C@H]2[C@@H]3C(=CC[C@H]2C1=O)C(=O)[C@H]1O[C@H]1[C@H]3O
-2.12

# input for lookup
For the compound `COc1ccc(COC(=O)NN=C2C[C@@H](O)[C@@H](O)[C@@H]3[C@@H]4C(=O)N([C@@H](C)c5ccccc5)C(=O)[C@@H]4CC[C@H]23)cc1` , report composite z-score.
-1.05

###

# Target of assay: Neurogenic locus notch homolog protein 3 (Homo sapiens)
# Test name: NOTCH3 binders on small-molecule microarray, primary screen, biochemical, 635/667 nm fluorescence (AID 1096)
# Settings: NOTCH3 binding, 635 nm fluorescence, higher = more signal
Attribute: composite z-score
Lab note: write the figure by itself, no unit.

C=CC[C@@H]1C=C[C@H](ON=C(C)CCN2CCCc3nc(C)c(C)cc32)[C@@H](CO)O1
0.946

For the compound `COc1ccc(COC(=O)NN=C2C[C@@H](O)[C@@H](O)[C@@H]3[C@@H]4C(=O)N(Cc5ccc6c(c5)OCO6)C(=O)[C@@H]4CC[C@H]23)cc1` , report composite z-score.
-0.523

For the compound `COC(=O)[C@@H]1CC[C@H](C)[C@@H](c2ccc(C)cc2)N1C(=O)c1ccc(C=NOC[C@H]2O[C@H](c3ccccc3)C=C[C@@H]2Oc2ccc(OC)cc2)cc1` , report composite z-score.
0.107

For the compound C[C@@H]1CC[C@H]2C(=O)OC(Cc3ccccc3)CN2[C@H]1c1ccc(Br)cc1 (stereo partly specified) , report composite z-score.
0.0343

For the compound `CCOC(=O)NN=C1C[C@@H](O)[C@@H](O)[C@@H]2[C@@H]3C(=O)N(c4ccc(F)cc4F)C(=O)[C@@H]3CC[C@H]12` , report composite z-score.
0.625

For the compound `COc1ccc(O[C@H]2C=C[C@@H](c3ccccc3)O[C@@H]2CON=C2c3cc(OC)ccc3O[C@H](c3cccc(OC)c3)[C@H]2O)cc1` , report composite z-score.
0.927
